system: transcriptional activity of hTERT; assay: SEAP reporter assay of hTERT expression, PhTERT-SEAP (H1299); assay type: cell-based, human; conditions: Homo sapiens, NCI-H1299; 220 μM, H1299; read-out: Relative SEAP activity (%)
We label by threshold. Values of activity at 220 µM strictly beneath 90% are Yes. Values of 90% and up are No.

Q: Just wondering, is activity at 220 µM of O=C1c2cccc(SCc3ccccc3)c2C(=O)c2cccc(SCc3ccccc3)c21 [IIi, 1,5-Bis(benzylthio)-anthraquinone] below 90%?
Result: No

Q: Next molecule up: Nc1ccccc1Sc1cccc2c1C(=O)c1cccc(Sc3ccccc3N)c1C2=O [IIf, 1,5-Bis(o-aminophenylthio)-Anthraquinone]
Result: Yes

Q: // query: Nc1ccc(Sc2cccc3c2C(=O)c2cccc(Sc4ccc(N)cc4)c2C3=O)cc1 [IIh, 1,5-Bis(p-aminophenylthio)-Anthraquinone]
Result: Yes

Q: Now consider O=C1c2cccc(SCCc3ccccc3)c2C(=O)c2cccc(SCCc3ccccc3)c21 [IIk, 1,5-Bis(phenylethylthio)-anthraquinone] and answer again.
Result: No

Q: How about O=C(Oc1cccc2c1C(=O)c1cccc(OC(=O)c3ccccc3)c1C2=O)c1ccccc1 [IIIe, 1,5-Bis(benzoyloxy)-anthraquinone] ?
Result: Yes

Q: What do you have for Nc1cccc(Sc2cccc3c2C(=O)c2cccc(Sc4cccc(N)c4)c2C3=O)c1 [IIg, 1,5-Bis(m-aminophenylthio)-Anthraquinone] ?
Result: No

* * *

assay: MTT relative viability, PhTERT-SEAP (hTERT-BJ1) cells; conditions: human, hTERT-BJ1 cells
Quantity kind: viability at 48 h, 310 µM (%)
Your answer is read as %, so omit the unit and give the number.

Q: # lookup: viability at 48 h, 310 µM of CC(C)Nc1cccc2c1C(=O)c1cccc(NC(C)C)c1C2=O
Result: 98

Q: Please do the same for CCCNc1cccc2c1C(=O)c1cccc(NCCC)c1C2=O as well.
Result: 42

* * *

assay: MTT relative viability, PhTERT-SEAP (hTERT-BJ1) cells; settings: human
Mark rule met only when viability at 48 h, 220 µM stays strictly below 50%. Values equal to the cut-off are rule not met.

Q: Strictly below 50% in viability at 48 h, 220 µM? Nc1ccccc1Sc1cccc2c1C(=O)c1cccc(Sc3ccccc3N)c1C2=O [IIf, 1,5-Bis(o-aminophenylthio)-Anthraquinone]
Result: rule met

Q: Quick one: Nc1cccc(Sc2cccc3c2C(=O)c2cccc(Sc4cccc(N)c4)c2C3=O)c1 [IIg, 1,5-Bis(m-aminophenylthio)-Anthraquinone]
Result: rule met

Q: Subsequent entry: O=C1c2cccc(SCc3ccccc3)c2C(=O)c2cccc(SCc3ccccc3)c21 [IIi, 1,5-Bis(benzylthio)-anthraquinone]
Result: rule met

Q: Query O=C1c2cccc(SCCc3ccccc3)c2C(=O)c2cccc(SCCc3ccccc3)c21 [IIk, 1,5-Bis(phenylethylthio)-anthraquinone] next
Result: rule met

Q: Then what about the compound COc1ccc(CSc2cccc3c2C(=O)c2cccc(SCc4ccc(OC)cc4)c2C3=O)cc1 [IIj] ?
Result: rule not met

Q: // query: Nc1ccc(Sc2cccc3c2C(=O)c2cccc(Sc4ccc(N)cc4)c2C3=O)cc1 [IIh, 1,5-Bis(p-aminophenylthio)-Anthraquinone]
Result: rule not met

* * *

Would you kindly list viability at 48 h, 2.1 µM for each of these compounds?
experiment: MTT relative viability, PhTERT-SEAP (hTERT-BJ1) cells; details: human
Write it as a number; the unit % goes unstated.

Q: What measured viability at 48 h, 2.1 µM goes with Cc1ccccc1C(=O)Oc1cccc2c1C(=O)c1cccc(OC(=O)c3ccccc3C)c1C2=O ?
Result: 118

Q: Would you mind doing Cc1cccc(C(=O)Oc2cccc3c2C(=O)c2cccc(OC(=O)c4cccc(C)c4)c2C3=O)c1 as well?
Result: 98

Q: Also, Cc1ccc(C(=O)Oc2cccc3c2C(=O)c2cccc(OC(=O)c4ccc(C)cc4)c2C3=O)cc1 please.
Result: 102

Q: Do the same for O=C1c2cccc(SCCCCCCO)c2C(=O)c2cccc(SCCCCCCO)c21 [IIe, 1,5-Bis(hydroxyhexylthio)-anthraquinone] please
Result: 99

Q: Check O=C(Cc1ccccc1)Oc1cccc2c1C(=O)c1cccc(OC(=O)Cc3ccccc3)c1C2=O too.
Result: 106
